# melting point per entry
measurementKind: melting point

• O=C(Cn1nc(-c2ccncc2)oc1=S)Nc1ncc([N+](=O)[O-])s1 [Compound 7e] = 254 to 256 °C
• Cc1cccc(NC(=O)Cn2nc(-c3ccncc3)n(N)c2=S)n1 [Compound 6p] = 230 to 232 °C
• Nn1c(-c2ccncc2)nn(CC(=O)Nc2cccc(C(F)(F)F)c2)c1=S [Compound 6e] = 242 to 244 °C
• Cc1ccnc(NC(=O)Cn2nc(-c3ccncc3)n(N)c2=S)c1 [Compound 6q] = 217 to 219 °C
• COc1cccc(NC(=O)Cn2nc(-c3ccncc3)n(N)c2=S)c1 [Compound 6l] = 222 to 224 °C
• O=C(Cn1nc(-c2ccncc2)oc1=S)Nc1nc2ccccc2s1 [Compound 7f] = 206 to 208 °C
• Nn1c(-c2ccncc2)nn(CC(=O)Nc2ncccn2)c1=S [Compound 6r] = 205 to 207 °C
• COc1ccc(NC(=O)Cn2nc(-c3ccncc3)n(N)c2=S)cc1 [Compound 6d] = 256 to 258 °C
• Cc1ccc(NC(=O)Cn2nc(-c3ccncc3)n(N)c2=S)cc1Cl [Compound 6h] = 214 to 216 °C
• CCOc1ccc2nc(NC(=O)Cn3nc(-c4ccncc4)oc3=S)sc2c1 [Compound 7g] = 252 to 254 °C
• Nn1c(-c2ccncc2)nn(CC(=O)Nc2ccccc2)c1=S [Compound 6a] = 242 to 244 °C

* * *

molecular target: UniProt P9WGR1; assay: Mtb InhA enzyme inhibition assay (fluorescence based); type: biochemical; details: read-out: InhA IC50; InhA 1.25 nM, 0.050 mM NADH, NADH fluorescence
Sequence (P9WGR1 whole entry, looked up): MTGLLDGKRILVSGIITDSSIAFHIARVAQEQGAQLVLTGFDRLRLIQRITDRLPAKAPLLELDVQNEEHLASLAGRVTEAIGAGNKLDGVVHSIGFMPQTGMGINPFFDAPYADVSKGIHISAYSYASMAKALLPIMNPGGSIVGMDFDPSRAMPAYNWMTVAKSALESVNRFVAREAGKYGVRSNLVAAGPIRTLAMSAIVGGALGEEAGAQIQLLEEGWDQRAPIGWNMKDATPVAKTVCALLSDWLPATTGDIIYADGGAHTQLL
pIC50: −log10 of the molar value.
Threshold check on pIC50: at or above 6 gives Y, strictly below gives N.

• COc1ccc(NC(=O)Cn2nc(-c3ccncc3)n(N)c2=S)cc1 [Compound 6d] = N
• Nn1c(-c2ccncc2)nn(CC(=O)Nc2ccccn2)c1=S [Compound 6o] = N
• Cc1ccc(NC(=O)Cn2nc(-c3ccncc3)n(N)c2=S)cc1C [Compound 6g] = Y
• Nn1c(-c2ccncc2)nn(CC(=O)Nc2cccc(Cl)c2)c1=S [Compound 6j] = N
• Cc1cccc(NC(=O)Cn2nc(-c3ccncc3)n(N)c2=S)n1 [Compound 6p] = N
• Nn1c(-c2ccncc2)nn(CC(=O)Nc2cccc(C(F)(F)F)c2)c1=S [Compound 6e] = N
• Cc1ccc(NC(=O)Cn2nc(-c3ccncc3)n(N)c2=S)cc1Cl [Compound 6h] = Y

Attribution: paper PMC7059037
